B1: Dystrobrevin alpha, residues 235 to 294; numbered along this chain, Q9Y4J8 (parent)
chain: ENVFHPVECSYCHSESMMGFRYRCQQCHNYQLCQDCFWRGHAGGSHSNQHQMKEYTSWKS

- Variants of: B1
- methodSummary: abundance fitness (aPCA) (normalised: wild type 0, dead -1); higher = more abundant; growth selection in yeast, the domain comes from the species named
- appliedConditions: Homo sapiens
Label TRUE when abundance fitness is at or above -0.05; otherwise label FALSE.

**Q:** Please indicate if the recorded abundance fitness for "H41V" meets or exceeds -0.05.
**A:** TRUE

**Q:** Please indicate if the recorded abundance fitness for "C9S" meets or exceeds -0.05.
**A:** FALSE

**Q:** Please indicate if the recorded abundance fitness for "M18T" meets or exceeds -0.05.
**A:** TRUE

**Q:** Please indicate if the recorded abundance fitness for "Y11W" meets or exceeds -0.05.
**A:** FALSE

**Q:** Please indicate if the recorded abundance fitness for "S16L" meets or exceeds -0.05.
**A:** TRUE

**Q:** Please indicate if the recorded abundance fitness for "Y30F" meets or exceeds -0.05.
**A:** FALSE

**Q:** Please indicate if the recorded abundance fitness for "S10Y" meets or exceeds -0.05.
**A:** FALSE

**Q:** Please indicate if the recorded abundance fitness for "Y55E" meets or exceeds -0.05.
**A:** TRUE

**Q:** Please indicate if the recorded abundance fitness for "M18Y" meets or exceeds -0.05.
**A:** TRUE

**Q:** Please indicate if the recorded abundance fitness for "R21V" meets or exceeds -0.05.
**A:** FALSE

**Q:** Please indicate if the recorded abundance fitness for "Q26A" meets or exceeds -0.05.
**A:** TRUE

**Q:** Please indicate if the recorded abundance fitness for "S16C" meets or exceeds -0.05.
**A:** FALSE

**Q:** Please indicate if the recorded abundance fitness for "H28K" meets or exceeds -0.05.
**A:** TRUE

**Q:** Please indicate if the recorded abundance fitness for "Q34D" meets or exceeds -0.05.
**A:** FALSE

**Q:** Please indicate if the recorded abundance fitness for "E8I" meets or exceeds -0.05.
**A:** FALSE

**Q:** Please indicate if the recorded abundance fitness for "S45K" meets or exceeds -0.05.
**A:** TRUE

**Q:** Please indicate if the recorded abundance fitness for "S45E" meets or exceeds -0.05.
**A:** TRUE

**Q:** Please indicate if the recorded abundance fitness for "F4M" meets or exceeds -0.05.
**A:** TRUE

**Q:** Please indicate if the recorded abundance fitness for "M18S" meets or exceeds -0.05.
**A:** TRUE

**Q:** Please indicate if the recorded abundance fitness for "Q34K" meets or exceeds -0.05.
**A:** TRUE

**Q:** Please indicate if the recorded abundance fitness for "S60N" meets or exceeds -0.05.
**A:** FALSE

**Q:** Please indicate if the recorded abundance fitness for "W58H" meets or exceeds -0.05.
**A:** TRUE

**Q:** Please indicate if the recorded abundance fitness for "G43E" meets or exceeds -0.05.
**A:** TRUE

**Q:** Please indicate if the recorded abundance fitness for "C27R" meets or exceeds -0.05.
**A:** FALSE

**Q:** Please indicate if the recorded abundance fitness for "S60G" meets or exceeds -0.05.
**A:** TRUE

**Q:** Please indicate if the recorded abundance fitness for "K53M" meets or exceeds -0.05.
**A:** FALSE

**Q:** Please indicate if the recorded abundance fitness for "C9K" meets or exceeds -0.05.
**A:** FALSE

**Q:** Please indicate if the recorded abundance fitness for "K59V" meets or exceeds -0.05.
**A:** FALSE

**Q:** Please indicate if the recorded abundance fitness for "Q25R" meets or exceeds -0.05.
**A:** FALSE

**Q:** Please indicate if the recorded abundance fitness for "K53P" meets or exceeds -0.05.
**A:** FALSE

**Q:** Please indicate if the recorded abundance fitness for "L32S" meets or exceeds -0.05.
**A:** FALSE

**Q:** Please indicate if the recorded abundance fitness for "P6C" meets or exceeds -0.05.
**A:** FALSE

**Q:** Please indicate if the recorded abundance fitness for "N29A" meets or exceeds -0.05.
**A:** TRUE

**Q:** Please indicate if the recorded abundance fitness for "W38V" meets or exceeds -0.05.
**A:** TRUE

**Q:** Please indicate if the recorded abundance fitness for "C12I" meets or exceeds -0.05.
**A:** FALSE

**Q:** Please indicate if the recorded abundance fitness for "C27H" meets or exceeds -0.05.
**A:** FALSE

**Q:** Please indicate if the recorded abundance fitness for "N29T" meets or exceeds -0.05.
**A:** FALSE

**Q:** Please indicate if the recorded abundance fitness for "C12D" meets or exceeds -0.05.
**A:** FALSE

**Q:** Please indicate if the recorded abundance fitness for "C36G" meets or exceeds -0.05.
**A:** FALSE

**Q:** Please indicate if the recorded abundance fitness for "H28L" meets or exceeds -0.05.
**A:** TRUE

**Q:** Please indicate if the recorded abundance fitness for "Q51F" meets or exceeds -0.05.
**A:** FALSE

**Q:** Please indicate if the recorded abundance fitness for "Q31R" meets or exceeds -0.05.
**A:** FALSE

**Q:** Please indicate if the recorded abundance fitness for "Y11I" meets or exceeds -0.05.
**A:** FALSE

**Q:** Please indicate if the recorded abundance fitness for "C33S" meets or exceeds -0.05.
**A:** FALSE
